target: glucosylceramide synthase (GCS) (Homo sapiens (Human), UniProt Q16739); assay: Evaluation of inhibitory activities against GCS (A549 cell lysate, NBD C6-ceramide, HPLC); assay type: biochemical
Sequence (Q16739 whole entry): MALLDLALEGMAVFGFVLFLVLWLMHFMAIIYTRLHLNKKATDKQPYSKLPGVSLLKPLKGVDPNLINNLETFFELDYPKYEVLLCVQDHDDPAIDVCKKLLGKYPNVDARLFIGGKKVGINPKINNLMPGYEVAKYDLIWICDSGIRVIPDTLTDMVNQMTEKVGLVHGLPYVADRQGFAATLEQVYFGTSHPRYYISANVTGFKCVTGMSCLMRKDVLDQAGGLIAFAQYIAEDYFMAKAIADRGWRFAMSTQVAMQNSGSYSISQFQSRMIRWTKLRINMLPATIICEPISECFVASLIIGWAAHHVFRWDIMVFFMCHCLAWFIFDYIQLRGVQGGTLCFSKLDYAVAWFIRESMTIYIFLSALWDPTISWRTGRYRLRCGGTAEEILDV
value kind: pIC50
Value format note: pIC50 is -log10 of concentration (mol/L); just state the number.

Consider the worked cases shown below.
CCc1ccc(-c2cc3c(cc2C)[C@H](NC(=O)O[C@@H]2CN4CCC2CC4)C(C)(C)C3)cc1 [Example 115] = 9.37
Cc1cc2c(cc1-c1ccc(OCC(C)C)cc1)CC(C)(C)[C@H]2NC(=O)O[C@@H]1CN2CCC1CC2 [Example 124] = 9.70
CCc1ccc(-c2ccc3c(c2)CCC(C)(C)[C@H]3NC(=O)O[C@@H]2CN3CCC2CC3)cc1 [Example 139] = 9.59
Cc1cc(-c2cc3c(cc2F)[C@H](NC(=O)O[C@@H]2CN4CCC2CC4)C(C)(C)C3)ccc1OC(F)F [Example 107] = 9.03
CC(C)Oc1ccc(-c2ccc3c(c2)CCC(C)(C)[C@H]3NC(=O)O[C@@H]2CN3CCC2CC3)cc1F [Example 161] = 8.13
CCOc1ccc(-c2cc3c(cc2F)[C@H](NC(=O)O[C@@H]2CN4CCC2CC4)C(C)(C)CC3)cc1 [Example 176] = 9.62

Task: Specify reported pIC50 for the compound shown: CC(C)Oc1ccc(-c2cc3c(cc2F)[C@H](NC(=O)O[C@@H]2CN4CCC2CC4)C(C)(C)CC3)cc1 [Example 197]
Output: 9.70

Task: Quote pIC50 reported for CCOc1cc2c(cc1-c1ccc(CC)cc1)CC(C)(C)[C@H]2NC(=O)O[C@@H]1CN2CCC1CC2 [Example 127] please.
Output: 8.74

Task: Supply measured pIC50 of Cc1cc2c(cc1-c1ccc(CC(C)C)cc1)CC(C)(C)[C@H]2NC(=O)O[C@@H]1CN2CCC1CC2 [Example 119] in your reply.
Output: 9.64

* * *

target: glucosylceramide synthase (GCS) (Homo sapiens (Human), UniProt Q16739); assay: Evaluation of inhibitory activities against GCS (A549 cell lysate, NBD C6-ceramide, HPLC); assay type: biochemical
The compounds listed here are annotated with their log10 of IC50.
Please keep in mind that the values are log10 of IC50 expressed in nM.

Sample answers from the record:
CC1(C)Cc2cc(-c3cc(F)cc(OCC(F)(F)F)c3)c(F)cc2[C@@H]1NC(=O)O[C@@H]1CN2CCC1CC2 = 0.02
CC(C)c1cccc(-c2cc3c(cc2F)[C@H](NC(=O)O[C@@H]2CN4CCC2CC4)C(C)(C)CC3)c1 = -0.14
CCOc1cc2c(cc1-c1ccc(OC(C)C)c(Cl)c1)CC(C)(C)[C@H]2NC(=O)O[C@@H]1CN2CCC1CC2 = 0.48
CC(C)Oc1ccc(-c2ccc3c(c2)CCC(C)(C)[C@H]3NC(=O)O[C@@H]2CN3CCC2CC3)cc1 = -0.43
CC(C)Oc1cccc(-c2cc3c(cc2F)[C@H](NC(=O)O[C@@H]2CN4CCC2CC4)C(C)(C)CC3)c1 = -0.37

Task: Read off the recorded log10 of IC50 for Cc1cc2c(cc1-c1ccc(OC(C)C)cc1)CC(C)(C)[C@H]2NC(=O)O[C@@H]1CN2CCC1CC2
Output: -0.47

Task: Give the reported value of log10 of IC50 for this record: CC1(C)Cc2cc(-c3ccc(OCC4CC4)cc3Cl)ccc2[C@@H]1NC(=O)O[C@@H]1CN2CCC1CC2
Output: -1.30

* * *

experiment: Evaluation of blood-brain barrier (BBB) permeability through oral administration; type: in vivo, mice; details: mouse, in vivo; mice, oral, dose 10 mg/kg, 4 hr; read-out: Mean brain-plasma drug ratio at 4 hr
value kind: Kp at 4 h
Respond with the number and no other words.

Task: For CC(C)Oc1ccc(-c2ccc3c(c2)CC(C)(C)[C@H]3NC(=O)O[C@@H]2CN3CCC2CC3)cc1Cl , write its Kp at 4 h.
Output: 9.12

* * *

biological target: glucosylceramide synthase (GCS) (Homo sapiens (Human)); assay: Evaluation of inhibitory activities against GCS (A549 cell lysate, NBD C6-ceramide, HPLC); type: biochemical
value kind: pIC50
A value of pIC50 is the negative decimal logarithm of a concentration given in moles per litre.

CCOc1c(C)cc(-c2cc3c(cc2F)[C@H](NC(=O)O[C@@H]2CN4CCC2CC4)C(C)(C)CC3)cc1C = 8.89

Task: Tell me its pIC50 given CCCCc1ccc(-c2cc3c(cc2F)[C@H](NC(=O)O[C@@H]2CN4CCC2CC4)C(C)(C)CC3)cc1 as the entry.
Output: 9.62

Task: Answer with reported pIC50 of CC(C)Cc1cccc(-c2ccc3c(c2)CCC(C)(C)[C@H]3NC(=O)O[C@@H]2CN3CCC2CC3)c1
Output: 9.09

Task: Provide pIC50 value for the following molecule: CC(C)Oc1cc(Cl)cc(-c2ccc3c(c2)CC(C)(C)[C@H]3NC(=O)O[C@@H]2CN3CCC2CC3)c1
Output: 9.23

* * *

Target: glucosylceramide synthase (GCS) (Homo sapiens (Human))
Assay: Evaluation of inhibitory activities against GCS (A549 cell lysate, NBD C6-ceramide, HPLC)
Format: biochemical
Description: The inhibitory activities of the compounds of the present invention against GCS were evaluated, as follows, according to the method described in the known literature (Hayashi Y et al., A sensitive and reproducible assay to measure the activity of glucosylceramide synthase and lactosylceramide synthase using HPLC and fluorescent substrates, Analytical Biochemistry 345 (2005) 181-186). Ibiglustat, known as a GCS inhibitor, was used as a control. […]
The compounds listed here are annotated with their pIC50.
Note: pIC50 values are expressed as the negative base-10 logarithm of concentration in M.

COc1cc(-c2cc3c(cc2F)[C@H](NC(=O)O[C@@H]2CN4CCC2CC4)C(C)(C)C3)ccc1OC(C)C = 8.94
CCCc1ccc(-c2ccc3c(c2)CCC(C)(C)[C@H]3NC(=O)O[C@@H]2CN3CCC2CC3)cc1 = 9.54
Cc1cc(-c2ccc3c(c2)CC(C)(C)[C@H]3NC(=O)O[C@@H]2CN3CCC2CC3)ccc1OC(C)C = 8.88
Cc1cc2c(cc1-c1ccc(C(C)C)cc1)CC(C)(C)[C@H]2NC(=O)O[C@@H]1CN2CCC1CC2 = 9.33
CCOc1cccc(-c2ccc3c(c2)CCC(C)(C)[C@H]3NC(=O)O[C@@H]2CN3CCC2CC3)c1 = 9.42
CC1(C)Cc2cc(-c3ccc(OCC(F)(F)F)cc3Cl)ccc2[C@@H]1NC(=O)O[C@@H]1CN2CCC1CC2 = 9.20

Task: Tell me its pIC50 on glucosylceramide synthase (GCS) (Homo sapiens (Human)): Cc1cc(OC(C)C)ccc1-c1ccc2c(c1)CC(C)(C)[C@H]2NC(=O)O[C@@H]1CN2CCC1CC2
Output: 9.89

Task: Param request: pIC50 | system glucosylceramide synthase (GCS) (Homo sapiens (Human)) | item CCOc1cccc(-c2cc3c(cc2F)[C@H](NC(=O)O[C@@H]2CN4CCC2CC4)C(C)(C)CC3)c1
Output: 9.52

* * *

target: glucosylceramide synthase (GCS) (Homo sapiens (Human), UniProt Q16739); assay: Evaluation of inhibitory activities against GCS (A549 cell lysate, NBD C6-ceramide, HPLC); format: biochemical
value kind: IC50 (nM)
Please give a number only; it is taken to be in nM.

COc1cccc(-c2ccc3c(c2)CCC(C)(C)[C@H]3NC(=O)O[C@@H]2CN3CCC2CC3)c1 [Example 153] = 0.32
CCCOc1c(C)cc(-c2cc3c(cc2F)[C@H](NC(=O)O[C@@H]2CN4CCC2CC4)C(C)(C)CC3)cc1C [Example 181] = 1.85
CCOc1ccc(-c2cc3c(cc2F)[C@H](NC(=O)O[C@@H]2CN4CCC2CC4)C(C)(C)C3)cc1Cl [Example 86] = 0.756
Cc1cc2c(cc1-c1ccc(OC(C)C)c(Cl)c1)CC(C)(C)[C@H]2NC(=O)O[C@@H]1CN2CCC1CC2 [Example 125] = 2.17
CCOc1c(C)cc(-c2ccc3c(c2)CCC(C)(C)[C@H]3NC(=O)O[C@@H]2CN3CCC2CC3)cc1C [Example 164] = 1.39

Task: Could you please provide reported IC50 for CCOc1ccc(-c2cc3c(cc2F)[C@H](NC(=O)O[C@@H]2CN4CCC2CC4)C(C)(C)C3)cc1C [Example 105] ? Thanks!
Output: 0.72

Task: Identify IC50 associated with the molecule CCCCOc1ccc(-c2cc3c(cc2F)[C@H](NC(=O)O[C@@H]2CN4CCC2CC4)C(C)(C)C3)cc1Cl [Example 88]
Output: 0.779

Task: Supply recorded IC50 for CC(C)COc1cc(Cl)cc(-c2ccc3c(c2)CC(C)(C)[C@H]3NC(=O)O[C@@H]2CN3CCC2CC3)c1 [Example 53] here.
Output: 0.67

Task: Using known records, supply IC50 for CC(C)(C)Oc1ccc(-c2ccc3c(c2)CC(C)(C)[C@H]3NC(=O)O[C@@H]2CN3CCC2CC3)c(Cl)c1 [Example 42]
Output: 0.3

Task: Entry COc1ccc(-c2cc3c(cc2C)[C@H](NC(=O)O[C@@H]2CN4CCC2CC4)C(C)(C)C3)c(F)c1 [Example 126] needs its IC50 filled in; supply it.
Output: 1.48

Task: State, in one line, measured IC50 of COc1cccc(-c2cc3c(cc2F)[C@H](NC(=O)O[C@@H]2CN4CCC2CC4)C(C)(C)CC3)c1 [Example 184]
Output: 0.3

Task: Return value of IC50 for input CC(C)Oc1cc(F)cc(-c2ccc3c(c2)CC(C)(C)[C@H]3NC(=O)O[C@@H]2CN3CCC2CC3)c1 [Example 49] , no commentary.
Output: 0.58

Task: Please give measured IC50 of the following entry: CCc1ccc(-c2cc3c(cc2F)[C@H](NC(=O)O[C@@H]2CN4CCC2CC4)C(C)(C)CC3)cc1 [Example 170]
Output: 0.31

Task: Provide IC50 value for the following molecule: CCCOc1c(C)cc(-c2cc3c(cc2F)[C@H](NC(=O)O[C@@H]2CN4CCC2CC4)C(C)(C)C3)cc1C [Example 64]
Output: 3.92
